# credit: the supplement of paper PMC7184167

System: replication-induced senescent mouse newborn dermal fibroblasts (NBF)
Assay: relative cell viability of senescent cells (fraction); higher = less killing of senescent cells
Details: 1 µM; 3 days
Counter-ions that a name gives are not always drawn.
MEASURE: relative cell viability
Please reply with the number alone, leaving off any unit.

MOLECULE	RECORDED MEASUREMENT
Nc1nc(Cl)nc2c1ncn2[C@H]1C[C@H](O)[C@@H](CO)O1 [Cladribine]	0.924
CN1CCC(=C2c3ccccc3CCc3sccc32)CC1 [Pizotifen Malate]	0.0212
CC(C)C[C@H](NC(=O)[C@@H](NC(=O)c1cccc(-c2ccccc2)n1)[C@@H](C)O)B(O)O	1.1
NC(=O)C1CCCc2c1[nH]c1ccc(Cl)cc21 (stereo not given) [Selisistat (EX 527)]	0.498
Cc1nc(Nc2ncc(C(=O)Nc3c(C)cccc3Cl)s2)cc(N2CCN(CCO)CC2)n1 [Dasatinib]	1.39

Which measured relative cell viability value corresponds to C[C@H]1C[C@H]2[C@@H]3CCC4=CC(=O)C=C[C@]4(C)[C@H]3C(=O)C[C@]2(C)[C@@]1(O)C(=O)CO [Meprednisone] ?
1.09

Which measured relative cell viability value corresponds to CC(C)OC(=O)OCOP(=O)(CO[C@H](C)Cn1cnc2c(N)ncnc21)OCOC(=O)OC(C)C [Tenofovir Disoproxil Fumarate] ?
0.84

Which measured relative cell viability value corresponds to O=C1[C@H](CC[C@H](O)c2ccc(F)cc2)[C@@H](c2ccc(O)cc2)N1c1ccc(F)cc1 [Ezetimibe] ?
0.901

Which measured relative cell viability value corresponds to CC(C)c1cc(-c2n[nH]c(=O)n2-c2ccc3c(ccn3C)c2)c(O)cc1O [Ganetespib (STA-9090)] ?
0.0837

Which measured relative cell viability value corresponds to C#C[C@]1(O)CC[C@H]2[C@@H]3CCC4=CC(=O)CC[C@@H]4[C@H]3CC[C@@]21CC [Levonorgestrel] ?
0.996

Which measured relative cell viability value corresponds to Cc1cn[nH]c1 [Fomepizole] ?
1.07

Which measured relative cell viability value corresponds to Cn1c(=O)c2[nH]cnc2n(C)c1=O [Aminophylline] ?
0.98

Which measured relative cell viability value corresponds to CCOc1cc2ncc(C#N)c(Nc3ccc(F)c(Cl)c3)c2cc1NC(=O)/C=C/CN(C)C [Pelitinib (EKB-569)] ?
1.01

Which measured relative cell viability value corresponds to COc1cc([C@@H]2c3cc4c(cc3[C@@H](O[C@@H]3O[C@@H]5CO[C@@H](c6cccs6)O[C@H]5[C@H](O)[C@H]3O)[C@H]3COC(=O)[C@H]23)OCO4)cc(OC)c1O [Teniposide] ?
1.08

Which measured relative cell viability value corresponds to COc1ccc(/C=C/C(=O)Nc2ccccc2C(=O)O)cc1OC [Tranilast] ?
1

Which measured relative cell viability value corresponds to Cc1[nH]c(/C=C2\C(=O)Nc3ccccc32)c(C)c1CCC(=O)O [Orantinib (TSU-68, SU6668)] ?
0.577

Which measured relative cell viability value corresponds to CNC(=C[N+](=O)[O-])NCCSCc1ccc(CN(C)C)o1 [Ranitidine Hydrochloride] ?
1.1

Which measured relative cell viability value corresponds to CCn1cc(C(=O)O)c(=O)c2cc(F)c(N3CCNCC3)nc21 [Enoxacin] ?
1.05

Which measured relative cell viability value corresponds to "C#Cc1cccc(Nc2ncnc3cc(OC)c(OCCCCCCC(=O)NO)cc23)c1" ?
1.02

Which measured relative cell viability value corresponds to Nc1cccc2c1C(=O)N(C1CCC(=O)NC1=O)C2=O (stereo not given) [Pomalidomide] ?
1.19

Which measured relative cell viability value corresponds to Cc1nc2n(c(=O)c1CCN1CCC(c3noc4cc(F)ccc34)CC1)CCCC2 [Risperidone] ?
0.76

Which measured relative cell viability value corresponds to "CO[C@H]1C[C@@H]2CC[C@@H](C)[C@@](O)(O2)C(=O)C(=O)N2CCCC[C@H]2C(=O)O[C@H]([C@H](C)C[C@@H]2CC[C@@H](OC(=O)C(C)(CO)CO)[C@H](OC)C2)CC(=O)[C@H](C)/C=C(\C)[C@@H](O)[C@@H](OC)C(=O)[C@H](C)C[C@H](C)/C=C/C=C/C=C/1C" ?
0.603
